Molecular target: T1, hPIF1HD R290A (human, UniProt Q9H611 206-620, R290A)
T1 sequence: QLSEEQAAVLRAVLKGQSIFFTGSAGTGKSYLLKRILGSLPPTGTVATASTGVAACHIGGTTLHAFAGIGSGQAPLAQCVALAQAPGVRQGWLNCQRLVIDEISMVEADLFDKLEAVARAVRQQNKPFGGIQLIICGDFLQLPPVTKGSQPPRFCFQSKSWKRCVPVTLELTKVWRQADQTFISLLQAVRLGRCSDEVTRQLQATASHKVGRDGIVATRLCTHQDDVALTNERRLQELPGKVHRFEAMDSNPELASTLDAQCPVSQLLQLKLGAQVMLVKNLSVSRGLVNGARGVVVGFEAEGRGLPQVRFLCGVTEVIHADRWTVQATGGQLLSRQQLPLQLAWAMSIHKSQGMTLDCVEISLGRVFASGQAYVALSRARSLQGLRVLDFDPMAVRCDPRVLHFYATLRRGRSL
Experiment: EMSA; no nucleotide; apparent, near saturation not reached; 20 mM HEPES-NaOH pH 7.5 (Results say pH 7.2), 135 mM NaCl, 5% glycerol, 1 mM DTT, 1 mg/ml BSA, 20 min at 20 C; 0.4 nM T(35); G4 assay: 0.1 nM G4 DNA, 2% PEG 8000 instead of glycerol, 5 uM T(35) competitor
Conditions: protein: recombinant; tags: His tag removed, GSRM left; label: 5' 32P (PNK)
reported.metric: Kd

input: Entry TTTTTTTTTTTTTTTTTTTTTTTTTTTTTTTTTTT (ssDNA) [poly-T(35)] : reported Kd = ?
output: ~40.4 nM
